Reported inhibition in vivo at 50 mg/kg is given for each of the following compounds.
- Test system: Rattus norvegicus
- test-name: Inhibition of carrageenan-induced 4 hours after 50 mg/kg i.p. administration in rats.
- Format: functional
- test-conditions: ip, route intraperitoneal
Supply the numeric figure in %, leaving out any unit text.

I am curious: what inhibition in vivo at 50 mg/kg value has been reported for CC/C(=N\OCCC(=O)O)C(C)C ? 35

I am curious: what inhibition in vivo at 50 mg/kg value has been reported for CC/C(=N\OCCC(=O)O)c1ccccc1 ? 28

I am curious: what inhibition in vivo at 50 mg/kg value has been reported for O=C(O)CCO/N=C/c1cccs1 ? 0

I am curious: what inhibition in vivo at 50 mg/kg value has been reported for O=C(O)CCO/N=C/c1ccccc1 ? 66

I am curious: what inhibition in vivo at 50 mg/kg value has been reported for O=C(O)CCO/N=C/c1ccco1 ? 15
